Attribution: patent US20050239891A1

experiment: Plasma amino acid concentrations in malnourished aged rats after renutrition; type: in vivo, Sprague-Dawley rats; conditions: male, Sprague-Dawley, rat, plasma, oral; elderly malnourished rats, diet enriched with L-citrulline 5 g/kg/d for a week; average ± SDM; p<0.05 vs AL, R and AANE
metricName: concentration at 1 week
Please format your answer as a value with the unit trailing.

compound NC(=O)NCCC[C@H](N)C(=O)O [CIT, L-citrulline] , concentration at 1 week observed: 2390 µM
